Source of measurements: PubChem BioAssay AID1159580

assay: chemical genetic growth profiling, strain panel (AID 1159580);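 further: tested at 20 µM; growth read once vehicle control cultures reached saturation at 30 °C; 1 = growth at the plate median or of vehicle wells; lower values mean less growth of the strain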; details: S. cerevisiae deletion strains, growth OD, locus YKR026C, strain gcn3, stronger effect = lower value
The campaign covered roughly 5,500 compounds. About 2,000 (36%) were called active. Roughly 18% stayed inconclusive and do not appear here. Some of the results follow.
Observed property: normalized growth
Answer using only a numeral; do not append any unit.

A selection of reference data follows.
Compound | Observed value
CC(CCc1ccccc1)NCC(O)c1ccc(O)c(C(N)=O)c1 (stereo not drawn) | 1.01
CC(C)CCCC(C)C1CCC2C3C[C@@H](O)[C@@]4(O)C[C@@H](O)CC[C@]4(C)C3CC[C@]12C (stereo partly drawn) | 1
CN(C)[C@@H]1C(=O)C(C(=O)NCN2CCCC2)=C(O)[C@@]2(O)C(=O)C3=C(O)c4c(O)cccc4[C@@](C)(O)[C@H]3C[C@@H]12 | 1
CCCN(CCC)S(=O)(=O)c1ccc(C(=O)O)cc1 | 0.988
CC(=O)O[C@@H]1CC2C(C)(C)[C@H](O)C=C[C@]2(C)C2CC[C@]3(C)C(=CC(=O)O[C@H]3c3ccoc3)[C@@]21C (stereo partly drawn) | 0.99
CC(=O)O[C@H]1CC[C@@]2(C)C(C[C@@H](OC(C)=O)[C@@]3(C)C4=CC(=O)O[C@@H](c5ccoc5)[C@]4(C)CCC23)C1(C)C (stereo partly drawn) | 1.01
CC1=CCCC2C1(C)CCC(C)C2(C)CC/C(C)=C/C[n+]1cn(C)c2c(N)ncnc21 (stereo not drawn) | 1.01
CC(C)NCC(O)COc1ccc(COCCOC(C)C)cc1 (stereo not drawn) | 0.986
O=C(O)c1cccnc1 | 0.988
CN(C)[C@@H]1C(=O)C(C(N)=O)=C(O)[C@@]2(O)C(=O)C3=C(O)c4c(O)ccc(Cl)c4[C@@](C)(O)[C@H]3C[C@@H]12 | 0.975

Lookup: Entry CC(C)CCCC(C)C1CCC2C3=CC[C@H]4C[C@@H](O)CC[C@]4(C)C3CC[C@@]21C (stereo partly drawn) needs its normalized growth filled in; supply it.
Found: 0.999

Lookup: Look up normalized growth of O=P1(N(CCCl)CCCl)NCCCO1 (stereo not drawn) and report it.
Found: 0.993

Lookup: Given CC(C)CCCC(C)[C@H]1CCC2C3CC=C4C[C@@H](O)CC[C@]4(C)C3CC[C@@]21C (stereo partly drawn) , respond with its normalized growth.
Found: 0.988
